B1: MYBL2 (parent)
chain: VKKSCWTEEEDRIICEAHKVLGNR

Variants of: B1
Assay: protein stability index of a GFP-peptide fusion (GPS, HEK-293T) (PSI 1-6); higher = more stable;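 further: lentivirally expressed fusions sorted by FACS into six bins by GFP to DsRed ratio, PSI derived from sequencing read proportions per bin multiplied by bin number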
Conditions: c terminus: a fixed tail appended
Returns satisfied if the recorded protein stability index is greater than or equal to 3, and not satisfied otherwise.

Study these solved cases before continuing.
{"VARIANT": "R24E", "CLASS": "satisfied"}
{"VARIANT": "D11L", "CLASS": "not satisfied"}
{"VARIANT": "R12T", "CLASS": "satisfied"}
{"VARIANT": "E16H", "CLASS": "satisfied"}
{"VARIANT": "N23F", "CLASS": "not satisfied"}
{"VARIANT": "L21C", "CLASS": "satisfied"}
{"VARIANT": "G22K", "CLASS": "satisfied"}
{"VARIANT": "R12G", "CLASS": "satisfied"}
{"VARIANT": "G22L", "CLASS": "not satisfied"}
{"VARIANT": "I14D", "CLASS": "satisfied"}

q: Given the entry V20N , answer whether its protein stability index meets or surpasses 3.
a: satisfied

q: Is the recorded value of protein stability index equal to or greater than 3 for this variant? A17G
a: satisfied

q: Dear colleague, could you confirm whether L21Y has protein stability index at or above 3?
a: satisfied

q: Textbook exercise: given the entry L21Q , state whether its protein stability index is greater than or equal to 3.
a: satisfied

q: In plain terms: is recorded protein stability index at least 3 for L21D ?
a: satisfied

q: Entry L21N : is its protein stability index no less than 3?
a: satisfied

q: Confirm if protein stability index reported for the variant K19T is 3 or above.
a: satisfied

q: Determine whether this variant has protein stability index no lower than 3: C15P
a: satisfied

q: Hi, just wondering whether L21E shows protein stability index of 3 or higher.
a: satisfied

q: Exam item: decide whether the reported protein stability index for R12Q is at least 3.
a: satisfied
